biological target: NDM-1 (Klebsiella pneumoniae, UniProt C7C422)
Sequence (C7C422 29-270 limits assumed): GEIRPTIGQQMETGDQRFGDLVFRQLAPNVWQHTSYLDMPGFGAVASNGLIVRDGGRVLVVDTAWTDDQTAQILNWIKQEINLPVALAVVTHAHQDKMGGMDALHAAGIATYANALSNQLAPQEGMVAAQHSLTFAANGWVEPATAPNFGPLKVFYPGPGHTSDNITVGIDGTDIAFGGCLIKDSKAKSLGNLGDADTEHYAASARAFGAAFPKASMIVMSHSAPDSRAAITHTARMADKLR
The threshold is 10 µM. Values of IC50 beneath it are tagged MET; values meeting or exceeding it are tagged NOT MET.

COMPOUND	STUDY_TARGET	LABEL_CLASS
O=C(CCc1ccccc1)NNC(=S)[S][K] [DC9]	NDM-1 (Klebsiella pneumoniae, UniProt C7C422)	NOT MET
O=C(NNC(=S)[S][K])c1ccc(O)cc1 [DC3]	NDM-1 (Klebsiella pneumoniae, UniProt C7C422)	NOT MET
O=C(NNC(=S)[S][K])c1cccc(Br)c1 [DC6]	NDM-1 (Klebsiella pneumoniae, UniProt C7C422)	NOT MET
Nc1ccccc1C(=O)NNC(=S)[S][K] [DC4]	NDM-1 (Klebsiella pneumoniae, UniProt C7C422)	NOT MET
CC(C)(C)c1ccc(C(=O)NNC(=S)[S][K])cc1 [DC7]	NDM-1 (Klebsiella pneumoniae, UniProt C7C422)	MET
O=C(NNC(=S)[S][K])c1ccc(Cl)cc1 [DC5]	NDM-1 (Klebsiella pneumoniae, UniProt C7C422)	NOT MET
O=C(Cc1ccccc1)NNC(=S)[S][K] [DC2]	NDM-1 (Klebsiella pneumoniae, UniProt C7C422)	MET

====

Counter-ions that a name gives are not always drawn.
ENDPOINT: melting point

COMPOUND	RESULT
O=C(CCc1ccccc1)NNC(=S)[S][K] (as salt: potassium)	170 to 171 °C
Nc1ccccc1C(=O)NNC(=S)[S][K]	233 to 234 °C
O=C(NNC(=S)[S][K])c1ccccc1O	264 to 265 °C
O=C(Cc1ccccc1)NNC(=S)[S][K]	150 to 151 °C
O=C(NNC(=S)[S][K])c1ccc(O)cc1	298 to 299 °C
O=C(NNC(=S)[S][K])c1ccc(Cl)cc1	> 300 °C
CC(C)(C)c1ccc(C(=O)NNC(=S)[S][K])cc1	> 300 °C
O=C(NNC(=S)[S][K])c1cccc(Br)c1	> 300 °C

====

target: ImiS (Aeromonas veronii)
ENDPOINT: Ki (µM)

COMPOUND	ENDPOINT	RECORDED_NUMBER
O=C(NNC(=S)[S][K])c1ccccc1O [DC1]	Ki	0.14

====

Heads up, these compounds all have IC50 values measured for UniProt:O31272.
ENDPOINT: IC50 (µM)

O=C(NNC(=S)[S][K])c1ccc(Cl)cc1 129
O=C(Cc1ccccc1)NNC(=S)[S][K] 2.5
O=C(CCc1ccccc1)NNC(=S)[S][K] 156
O=C(NNC(=S)[S][K])c1cccc(Br)c1 2.56
Nc1ccccc1C(=O)NNC(=S)[S][K] 1.08

====

molecular target: VIM-2 (Escherichia coli); construct: made in house; host or cells: E. coli BL21 (DE3), plasmid pET24a-VIM-2; format: biochemical; settings: read-out: IC50 against VIM-2; substrate cefazolin 40 µM, 30 mM Tris pH 7.0, 25 °C, 5 min pre-incubation, inhibitor up to 200 μM
pIC50: −log10 of the molar value.
pIC50 for assorted molecules
ENDPOINT: pIC50

O=C(NNC(=S)[S][K])c1ccc(O)cc1 4.08
Nc1ccccc1C(=O)NNC(=S)[S][K] 3.86
O=C(CCc1ccccc1)NNC(=S)[S][K] 3.94
CC(C)(C)c1ccc(C(=O)NNC(=S)[S][K])cc1 4.20
